Kindly state GI50 for each of the entries shown.
tested on: 786-0; test: NCI tumour cell line growth inhibition, 48 h
Active and inactive are the calls of the source. Cut-off read from the data, not from the text of the source: active = GI50 up to about 1.1 µM and inactive = higher.

// query Which GI50 is listed for CO[C@@H]1[C@H](OC(=O)NC(=O)CCl)CC[C@]2(CO2)[C@H]1[C@@]1(C)O[C@@H]1CC=C(C)C ?
// result 12.6 µM (inactive)

// query Which GI50 is listed for COc1ccc(/C=C2\OC(=O)C(Cl)=C2c2ccc(OC)cc2)cc1 ?
// result 45.6 µM (inactive)

// query Which GI50 is listed for CCCCCCCCCC[C@@H](OC(C)=O)[C@@H]1CC[C@@H]([C@@H]2CC[C@@H]([C@@H](O)CC#C/C=C/CCCCCCC[C@@]3(Sc4ccccc4)C[C@H](C)OC3=O)O2)O1 ?
// result > 10 µM (inactive)

// query Which GI50 is listed for NNc1ncc2c(n1)-c1ccccc1OC2 ?
// result 64.3 µM (inactive)

// query Which GI50 is listed for CC(=O)Nc1cc2cc(NS(=O)(=O)c3ccc(Cl)c(Cl)c3)ccc2oc1=O ?
// result 17.4 µM (inactive)

// query Which GI50 is listed for O=C(OCc1ccc([N+](=O)[O-])cc1)N1c2ccccc2[C@@]23O[C@]24CCC[C@H]3C#C/C=C\C#C[C@H]14 ?
// result > 100 µM (inactive)

// query Which GI50 is listed for CC(=O)Nc1ccc(Cl)c(Cl)c1 ?
// result > 100 µM (inactive)

// query Which GI50 is listed for COC(=O)Cc1c([C@H]2[C@H](CC(=O)OC)c3ccccc3N2C(C)=O)[nH]c2ccccc12 ?
// result > 100 µM (inactive)

// query Which GI50 is listed for O=C(Cn1c2c(c3ccccc31)CCCC2)NC1CCCCC1 ?
// result 69.8 µM (inactive)

// query Which GI50 is listed for CN(CCCCN1CCCC1)CCCN(C)C(=O)Cc1ccc(Cl)c(Cl)c1 ?
// result 12.9 µM (inactive)

// query Which GI50 is listed for O=C(Cc1ccccc1)NN1C(=O)C(Cl)C1c1ccccc1Cl (stereo not given) ?
// result 71.8 µM (inactive)

// query Which GI50 is listed for C[N+](C)(C)CC(=O)N/N=C/c1oc(-c2cccc([N+](=O)[O-])c2)c(-c2cccc([N+](=O)[O-])c2)c1[N+](=O)[O-] ?
// result 48.1 µM (inactive)

// query Which GI50 is listed for CCOC(=O)c1nc2ccccc2nc1Oc1cc(OC)cc(OC)c1 ?
// result 35.5 µM (inactive)

// query Which GI50 is listed for CN(C)c1ccc(-c2nc(N)nc3c2CCCC3)cc1 ?
// result 82 µM (inactive)

// query Which GI50 is listed for O=C(O)CNC(=O)CO/N=C1/C(=C2/C(=O)Nc3ccccc32)Nc2ccccc21 ?
// result > 100 µM (inactive)

// query Which GI50 is listed for CC(=O)Nc1ccc(-c2nnc(SCC(=O)Nc3ccccc3Cl)o2)cc1 ?
// result > 100 µM (inactive)

// query Which GI50 is listed for COC(=O)c1c(C)cccc1C1CN=NC12Cc1cc(C)cc(C)c1C2=O (stereo not given) ?
// result 42.7 µM (inactive)

// query Which GI50 is listed for O=C1C(Cl)=C(NCCO)C(=O)c2c(O)ccc(O)c21 ?
// result 5.53 µM (inactive)

// query Which GI50 is listed for CCP(C)(C)=O ?
// result > 100 µM (inactive)

// query Which GI50 is listed for Cc1cc2c(c(=O)o1)C1=S(SC(c3ccccc3)=C1)S2 (stereo not given) ?
// result 15 µM (inactive)
